Please respond with reported EC50 for every item in the list.
# Test Target: T1, recombinant cynomolgus IL-1β (cynomolgus, UniProt P79182 117-268)
# T1 construct: It was biotinylated in the ELISA and in the yeast display experiments; also called Cyno IL-1β; Cyno IL-1beta
# T1 sequence (looked up): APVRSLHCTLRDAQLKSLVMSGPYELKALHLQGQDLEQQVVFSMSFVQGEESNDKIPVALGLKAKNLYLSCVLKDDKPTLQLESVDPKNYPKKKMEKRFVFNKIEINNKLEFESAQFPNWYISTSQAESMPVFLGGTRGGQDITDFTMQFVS
# Test Protocol: indirect ELISA: mAb captured on goat anti-human IgG, biotinylated IL-1β titrated
Give bare numbers, in nM.

[
  {
    "Binder": "h1B12-AM3, affinity-matured h1B12.1 IgG1/k mut (234,235) mAb (scFv clone 34) (antibody, V domains shown, also called PR-1354592) VH: EVQLQESGPGLVKPSETLSLTCTVSGFSLSDYGVSWIRQPPGKGLEWIGLIWGSGDTYYNSPLKSRLTISKDTSKSQVSLKLSSVTAADTAVYYCAKQTNLWAYDLYSMDYWGQGTLVTVSS VL: DIQMTQSPSSLSASVGDRVTITCQASQDIDDDLNWYQQKPGKAPKLLISLASILRPGVPSRFSGSGSGTDFTFTISSLQPEDFATYYCLQSDSFPLTFGQGTKLEIKR",
    "EC50 / nM": 0.032
  },
  {
    "Binder": "h1B12-AM2, affinity-matured h1B12.1 IgG1/k mut (234,235) mAb (scFv clone 21) (antibody, V domains shown, also called PR-1354591) VH: EVQLQESGPGLVKPSETLSLTCTVSGFSLSEFGVSWIRQPPGKGLEWIGLIWGGGDTYYNSPLKSRLTISKDNSKSQVSLKLSSVTAADTAVYYCAKQRNLWAYDLYGMDYWGQGTLVTVSS VL: DIQMTQSPSSLSASVGDRVTITCQTSQDIDMDLNWYQQKPGKAPKLLISQGSTLWPGVPSRFSGSGSGTDFTFTISSLQPEDFATYYCLQTDSFPLTFGQGTKLEIKR",
    "EC50 / nM": 0.034
  },
  {
    "Binder": "h1B12-AM1, affinity-matured h1B12.1 IgG1/k mut (234,235) mAb (scFv clone 13) (antibody, V domains shown, also called PR-1354589) VH: EVQLQESGPGLVKPSETLSLTCTVSGFSLSDYGVSWIRQPPGKGLEWIGLIWGSGDTYYNSPLKSRLTISKDNSKSQVSLKLSSVTAADTAVYYCAKQTNIWAYDLYSMDYWGQGTLVTVSS VL: DIQMTQSPSSLSASVGDRVTITCQTSTDIDDDLNWYQQKPGKAPKLLISLASTLRPGVPSRFSGSGSGTDFTFTISSLQPEDFATYYCLQSDRLPLTFGQGTKLEIKR",
    "EC50 / nM": 0.026
  }
]

The binder listed as h1B12-AM4, affinity-matured h1B12.1 IgG1/k mut (234,235) mAb (scFv clone A1) (antibody, V domains shown, also called PR-1354594) VH: EVQLQESGPGLVKPSETLSLTCTVSGFSLRDYGVSWIRQPPGKGLEWLGLIWGSGDTYYNSPLKSRLTISKDTSKSQVSLKLSSVTAADTAVYYCAKQTNIWGYDLYGMDYWGQGTLVTVSS VL: DIQMTQSPSSLSASVGDRVTITCQASQDIDMDLNWYQQKPGKAPKLLISQANTLPPGVPSRFSGSGSGTDFTFTISSLQPEDFATYYCLQSDWLPLTFGQGTKLEIKR has a reported EC50 of 0.025
